system: WiDr; experiment: Cytotoxicity in WiDr cells expressing beta-galactosidase control; type: functional, cell-based; details: Homo sapiens
Examples of compounds with documented IC50 follow.

Look over these answered cases.
O=C(O)CC[C@H](NC(=O)Nc1ccc(COC(=O)Nc2ccccc2N(CCBr)CCBr)cc1)C(=O)O; 118 µM
O=C(O)CC[C@H](NC(=O)Nc1ccc(COC(=O)Nc2ccccc2N(CCCl)CCCl)cc1)C(=O)O; 21.1 µM
CS(=O)(=O)OCCN(CCOS(C)(=O)=O)c1ccccc1NC(=O)OCc1ccc(OC(=O)N[C@@H](CCC(=O)O)C(=O)O)cc1; 208 µM

# input Bench note: what IC50 did "O=C(O)CC[C@H](NC(=O)Oc1ccc(COC(=O)Nc2ccccc2N(CCBr)CCBr)cc1)C(=O)O" show?
# output 183 µM

# input Bench note: what IC50 did "O=C(O)CC[C@H](NC(=O)Oc1ccc(COC(=O)Nc2ccccc2N(CCI)CCI)cc1)C(=O)O" show?
# output 73.3 µM

* * *

Examples of compounds with documented k cat/Km follow.
Target: Carboxypeptidase G2 (Pseudomonas aeruginosa (strain ATCC 15692 / PAO1 / 1C / PRS 101 / LMG12228))
Sequence (whole entry): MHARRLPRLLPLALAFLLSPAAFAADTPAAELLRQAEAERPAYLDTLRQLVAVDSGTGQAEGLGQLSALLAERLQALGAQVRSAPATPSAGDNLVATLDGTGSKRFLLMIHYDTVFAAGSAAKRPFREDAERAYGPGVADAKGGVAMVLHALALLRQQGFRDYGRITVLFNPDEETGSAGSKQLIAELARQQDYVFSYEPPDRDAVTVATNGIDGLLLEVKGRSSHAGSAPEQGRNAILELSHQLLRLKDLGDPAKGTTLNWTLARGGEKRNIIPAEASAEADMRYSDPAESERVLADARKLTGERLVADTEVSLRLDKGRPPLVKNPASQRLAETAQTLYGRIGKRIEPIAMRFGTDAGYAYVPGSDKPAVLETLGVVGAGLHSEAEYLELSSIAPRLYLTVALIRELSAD
Assay: Ratio of kinetic constants Kcat and Km was determined against Carboxypeptidase G2
A bare number is all that is needed in reply.

Look over these answered cases.
CN(C(=O)OCc1ccc(NC(=O)N[C@@H](CCC(=O)O)C(=O)O)cc1)c1ccc(N(CCCl)CCCl)cc1; 0.91
CN(C(=O)OCc1ccc(OC(=O)N[C@@H](CCC(=O)O)C(=O)O)cc1)c1ccc(N(CCCl)CCCl)cc1; 1.78
O=C(O)CC[C@H](NC(=O)Oc1ccc(CO)cc1)C(=O)O; 82.3
O=C(O)CC[C@H](NC(=O)Nc1ccc(CO)cc1)C(=O)O; 21.1
O=C(O)CC[C@H](NC(=O)Nc1ccc(COC(=O)Nc2ccccc2N(CCCl)CCCl)cc1)C(=O)O; 5.31

# input Bench note: what k cat/Km did "O=C(O)CC[C@H](NC(=O)Oc1ccc(COC(=O)Nc2ccccc2N(CCCl)CCCl)cc1)C(=O)O" show?
# output 4.14

* * *

Examples of compounds with documented T1/2 follow.
assay: Half-life period (prodrug) was determined; type: ADME
Field: value (include unit after the number)

O=C(O)CC[C@H](NC(=O)Oc1ccc(COC(=O)Nc2ccccc2N(CCBr)CCBr)cc1)C(=O)O; 3.74 min

# input Bench note: what T1/2 did "CS(=O)(=O)OCCN(CCOS(C)(=O)=O)c1ccccc1NC(=O)OCc1ccc(OC(=O)N[C@@H](CCC(=O)O)C(=O)O)cc1" show?
# output 10.8 min

# input Bench note: what T1/2 did "CS(=O)(=O)OCCN(CCCl)c1ccc(C(=O)N[C@@H](CCC(=O)O)C(=O)O)cc1" show?
# output 59 min

# input Bench note: what T1/2 did "O=C(O)CC[C@H](NC(=O)Oc1ccc(COC(=O)Nc2ccccc2N(CCCl)CCCl)cc1)C(=O)O" show?
# output 146.3 min

* * *

test system: WiDr; assay: Cytotoxicity in WiDr cells expressing beta-galactosidase control; format: functional, cell-based; settings: Homo sapiens
Examples of molecules with documented pIC50 follow.
Value format note: pIC50 is -log10 of concentration (mol/L); just state the number.

Look over these answered cases.
O=C(O)CC[C@H](NC(=O)Oc1ccc(COC(=O)Nc2ccc(N(CCI)CCI)cc2)cc1)C(=O)O; 4.27
O=C(O)CC[C@H](NC(=O)Oc1ccc(COC(=O)Nc2ccc(N(CCBr)CCBr)cc2)cc1)C(=O)O; 4.00

Now take the following molecule into account.
# input Bench note: what pIC50 did "CN(C(=O)OCc1ccc(OC(=O)N[C@@H](CCC(=O)O)C(=O)O)cc1)c1ccc(N(CCBr)CCBr)cc1" show?
# output 4.57
